B1: TMEM106C (parent)
chain: FTGRDSITCLTCQGTGYIPTEQVN

# Variants of: B1
# assay-summary: protein stability index of a GFP-peptide fusion (GPS, HEK-293T) (PSI 1-6); higher = more stable;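 also: lentivirally expressed fusions sorted by FACS into six bins by GFP to DsRed ratio, PSI derived from sequencing read proportions per bin multiplied by bin number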
# assay-setup: c terminus: a fixed tail appended
Decide using protein stability index: a value greater than or equal to 2 is Satisfied, a smaller one is Not satisfied.

Check out these entries, answers already filled in.
I18M Satisfied
T15F Satisfied
C9S Satisfied
R4T Not satisfied
G3E Satisfied
C9G Not satisfied
C9P Satisfied
R4F Satisfied

Below: the item to evaluate.
Does protein stability index meet or surpass 2 for "I18H" ? Satisfied
